Target: kdr (Homo sapiens, UniProt P35968)
Sequence (P35968 834-1162 limits assumed, species assumed): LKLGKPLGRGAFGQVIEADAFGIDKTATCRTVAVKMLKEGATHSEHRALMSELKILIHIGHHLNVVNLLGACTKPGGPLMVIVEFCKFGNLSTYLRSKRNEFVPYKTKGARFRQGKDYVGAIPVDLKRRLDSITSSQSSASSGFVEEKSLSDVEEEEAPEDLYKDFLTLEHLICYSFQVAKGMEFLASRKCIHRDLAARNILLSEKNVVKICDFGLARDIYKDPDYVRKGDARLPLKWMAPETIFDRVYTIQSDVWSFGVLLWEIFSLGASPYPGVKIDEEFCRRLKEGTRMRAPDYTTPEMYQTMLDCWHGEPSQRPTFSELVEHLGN
Assay: kdr kinase assay (ELISA or Alphascreen)
Format: biochemical
Conditions: capacity to inhibit 50% of activity at 50 μM; read-out: kdr inhibitory activity

{"record.smiles": "C[C@H](Nc1cncc(-n2cnc3ccc(C(=O)N4CCN(C)CC4)cc32)n1)c1ccccc1", "inhibition at 50 µM": "< 50%"}
{"record.smiles": "C[C@@H](Nc1cncc(-n2cnc(-c3ccccc3)c2)n1)c1ccccc1", "inhibition at 50 µM": "> 50%"}
{"record.smiles": "Cc1nc2ccccc2n1-c1cncc(N[C@@H](C)c2ccccc2)n1", "inhibition at 50 µM": "< 50%"}
{"record.smiles": "c1ccc(CNc2cncc(-n3ccnc3)n2)cc1", "inhibition at 50 µM": "< 50%"}
{"record.smiles": "C[C@H](Nc1cncc(-n2cnc3cc(NC(=O)c4ccccc4)ccc32)n1)c1ccccc1", "inhibition at 50 µM": "> 50%"}
{"record.smiles": "Cc1nccn1-c1cncc(NCc2ccc(F)cc2)n1", "inhibition at 50 µM": "< 50%"}
{"record.smiles": "C[C@H](Nc1cncc(-n2cnc3cc(C(=O)NCCO)ccc32)n1)c1ccccc1", "inhibition at 50 µM": "> 50%"}
{"record.smiles": "C[C@H](Nc1cncc(-n2cnc3cc(NC(=O)C4CC4)ccc32)n1)c1ccccc1", "inhibition at 50 µM": "> 50%"}
{"record.smiles": "C[C@H](Nc1cncc(-n2cnc3ccc(C(=O)NCCCN4CCOCC4)cc32)n1)c1ccccc1", "inhibition at 50 µM": "> 50%"}
{"record.smiles": "C[C@H](Nc1cncc(-n2cnc3cc(C(=O)N4CCOCC4)ccc32)n1)c1ccccc1", "inhibition at 50 µM": "> 50%"}
